# Tested on: murine P388 leukemia cell
# method-summary: Antitumor effect on murine P388 leukemia cell
# Format: in vivo, murine; male CDF1 mice
# conditions: P388; Table 8 test lot
quantity: TI (therapeutic index, LD50 value/ILS50 value)

Some entries whose results are on file:
compound=CON.N.[Cl][Pt][Cl] reported_value="> 44.2"
compound="N.NC1CCCCC1.[Cl][Pt][Cl] [Comparative drug A, reference compound]" reported_value="> 31.3"

As a next step, examine the compound that follows.
Prompt: Supply TI (therapeutic index, LD50 value/ILS50 value) value. Item: CNO.N.[Cl][Pt][Cl]
Completion: > 31.2
